target.desc: Kras and SOS1 (biotin-tagged human Kras loaded with GDP, His-tagged human SOS1) (Homo sapiens, UniProt P01116, G12D)
Construct: made in house; host or cells: E. coli (stated for Kras only)
Sequence (P01116 1-188 isoform P01116-2 G12D): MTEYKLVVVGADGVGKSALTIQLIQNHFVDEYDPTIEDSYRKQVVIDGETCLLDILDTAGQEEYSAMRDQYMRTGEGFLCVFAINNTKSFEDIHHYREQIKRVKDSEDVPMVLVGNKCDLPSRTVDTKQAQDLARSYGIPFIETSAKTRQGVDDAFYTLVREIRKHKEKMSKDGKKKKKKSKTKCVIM
assay.overview: Protein-protein interaction inhibition between Kras and SOS1 (KrasGl2D-SOS PPI) using AlphaScreen
Type: binding
stated.conditions: AlphaScreen; biotin-tagged human Kras loaded with GDP, His-tagged human SOS1; read-out: KRAS G12D-SOS PPI IC50
Starred links: 1 amine or outer side, 2 acyl side, 3 side chain; linkers in the order of their positions; H or OH if unused. Positions of bridges follow the written chain, without caps; N, C: chain ends. Non-standard residues stand in square brackets, D forms with d. Residues, ends and D or L forms follow the SMILES beside them. *: point of attachment. hPhe(3-Cl-4-CF3) = N[C@@H](CCc1ccc(C(F)(F)F)c(Cl)c1)C(=O)O; hPhe(4-CF3) = N[C@@H](CCc1ccc(C(F)(F)F)cc1)C(=O)O; NMePhe(4-Cl) = CN[C@@H](Cc1ccc(Cl)cc1)C(=O)O; NMePhe(4-Me) = CN[C@@H](Cc1ccc(C)cc1)C(=O)O; NMedβ3hAla = C[C@H](CC(=O)[*:2])N(C)[*:1]; NMePhe(2-F) = CN[C@@H](Cc1ccccc1F)C(=O)O; NMeCha = CN[C@@H](CC1CCCCC1)C(=O)O; NMeChg = CN[C@H](C(=O)O)C1CCCCC1; NMeD = CN[C@@H](CC(=O)O)C(=O)O; NMeL = CN[C@@H](CC(C)C)C(=O)O; NMeV = CN[C@H](C(=O)O)C(C)C; NMeS = CN[C@@H](CO)C(=O)O; NMeA = CN[C@@H](C)C(=O)O; NMeAib = CNC(C)(C)C(=O)O; Piperidide = C1CCN(*)CC1; Pyrrolidide = C1CCN(*)C1; Ac5c = NC1(C(=O)O)CCCC1; Aze = O=C(O)[C@@H]1CCN1; Sar = CNCC(=O)O; Propyl = CCC*

| compound | IC50 |
| --- | --- |
| CC[C@H](C)[C@@H]1NC(=O)[C@H](CC(C)C)N(C)C(=O)C[C@@H](C)N(C)C(=O)[C@H](C(C)C)N(C)C(=O)C2(CCCC2)NC(=O)[C@@H]2CCCN2C(=O)[C@H](CCc2ccc(C(F)(F)F)c(Cl)c2)NC(=O)CN(C)C(=O)[C@H](Cc2ccccc2F)N(C)C(=O)CN(C)C(=O)CN(C)C1=O [Compound 1599] (cyclo([Ac5c][NMeV][NMedβ3hAla][NMeL]I[Sar][Sar][NMePhe(2-F)][Sar][hPhe(3-Cl-4-CF3)]P)) | 0.017 µM |
| CC[C@H](C)[C@@H]1NC(=O)[C@H](CC(C)C)N(C)C(=O)C[C@@H](C)N(C)C(=O)[C@H](CC(C)C)NC(=O)C(C)(C)N(C)C(=O)[C@H](CC(C)C)NC(=O)[C@H](CCc2ccc(C(F)(F)F)c(Cl)c2)NC(=O)CN(C)C(=O)[C@H](Cc2ccc(C)cc2)N(C)C(=O)[C@@H]2CCN2C(=O)[C@H](C)N(C)C1=O [Compound 1379] (cyclo([Aze][NMePhe(4-Me)][Sar][hPhe(3-Cl-4-CF3)]L[NMeAib]L[NMedβ3hAla][NMeL]I[NMeA])) | 0.064 µM |
| CCCOC[C@H]1C(=O)N(C)[C@@H](CC(C)C)C(=O)N[C@H](C(=O)N2CCCC2)CC(=O)N(C)[C@@H](C)C(=O)N[C@@H]([C@@H](C)CC)C(=O)N(C)CC(=O)N(C)CC(=O)N(C)[C@@H](Cc2ccc(Cl)cc2)C(=O)N(C)CC(=O)N[C@@H](CCc2ccc(C(F)(F)F)cc2)C(=O)N[C@@H](CC(C)C)C(=O)N1C [Compound 739] ([NMeA]I[Sar][Sar][NMePhe(4-Cl)][Sar][hPhe(4-CF3)]L[NMeS](Propyl)[NMeL]D-Pyrrolidide; lactam N-11) | 0.036 µM |
| CC[C@H](C)[C@@H]1NC(=O)[C@H](CC(C)C)N(C)C(=O)C[C@@H](C(=O)N2CCCCC2)N(C)C(=O)[C@H](C(C)C)NC(=O)C2(CCCC2)NC(=O)[C@@H]2CCCN2C(=O)[C@H](CCc2ccc(C(F)(F)F)c(Cl)c2)NC(=O)CN(C)C(=O)[C@H](CC2CCCCC2)N(C)C(=O)[C@@H]2CCN2C(=O)[C@H](C)N(C)C1=O [Compound 1106] ([NMeL]I[NMeA][Aze][NMeCha][Sar][hPhe(3-Cl-4-CF3)]P[Ac5c]V[NMeD]-Piperidide; lactam N-11) | 0.035 µM |
| CC(C)C[C@H]1C(=O)N[C@@H](C)C(=O)N(C)CC(=O)N(C)CC(=O)N(C)[C@@H](CC2CCCCC2)C(=O)N(C)CC(=O)N[C@@H](CCc2ccc(C(F)(F)F)c(Cl)c2)C(=O)N2CCC[C@H]2C(=O)NC2(CCCC2)C(=O)N(C)[C@@H](C2CCCCC2)C(=O)N(C)[C@H](C(=O)N2CCCCC2)CC(=O)N1C [Compound 1802] ([NMeL]A[Sar][Sar][NMeCha][Sar][hPhe(3-Cl-4-CF3)]P[Ac5c][NMeChg][NMeD]-Piperidide; lactam N-11) | 0.021 µM |

====

target.desc: Kras and SOS1 (biotin-tagged human Kras loaded with GDP, His-tagged human SOS1) (Homo sapiens, UniProt P01116, G12D)
Construct: made in house; host or cells: E. coli (stated for Kras only)
assay.overview: Protein-protein interaction inhibition between Kras and SOS1 (KrasGl2D-SOS PPI) using AlphaScreen
Assay type: binding
stated.conditions: AlphaScreen; biotin-tagged human Kras loaded with GDP, His-tagged human SOS1; read-out: KRAS G12D-SOS PPI IC50
Positions of bridges follow the written chain, without caps; N, C: chain ends. Non-standard residues stand in square brackets, D forms with d. Residues, ends and D or L forms follow the SMILES beside them. *: point of attachment. hPhe(3-Cl-4-CF3) = N[C@@H](CCc1ccc(C(F)(F)F)c(Cl)c1)C(=O)O; NMePhe(4-Cl) = CN[C@@H](Cc1ccc(Cl)cc1)C(=O)O; Leu(4,5-dehydro) = C=C(C)C[C@H](N)C(=O)O; NMeGly(cPent) = CN[C@H](C(=O)O)C1CCCC1; Phe(3-I) = N[C@@H](Cc1cccc(I)c1)C(=O)O; NMeF = CN[C@@H](Cc1ccccc1)C(=O)O; NMeD = CN[C@@H](CC(=O)O)C(=O)O; NMeL = CN[C@@H](CC(C)C)C(=O)O; d(β3hA) = C[C@@H](N)CC(=O)O; NMeA = CN[C@@H](C)C(=O)O; NMeAib = CNC(C)(C)C(=O)O; Piperidide = C1CCN(*)CC1; dNMeA = CN[C@H](C)C(=O)O; Ac5c = NC1(C(=O)O)CCCC1; Aze = O=C(O)[C@@H]1CCN1; Sar = CNCC(=O)O
Quick reference for IC50 among some molecules
measured.parameter: IC50 (nM)

| molecule | measured.parameter | unit.tag | observed.result |
| --- | --- | --- | --- |
| CC[C@H](C)[C@@H]1NC(=O)[C@H](C)N(C)C(=O)C[C@@H](C)NC(=O)[C@H](C2CCCC2)N(C)C(=O)C2(CCCC2)NC(=O)[C@@H]2CCCN2C(=O)[C@H](CCc2ccc(C(F)(F)F)c(Cl)c2)NC(=O)[C@@H](C)N(C)C(=O)[C@H](Cc2ccccc2)N(C)C(=O)CN(C)C(=O)CN(C)C1=O [Compound 482] (cyclo([Ac5c][NMeGly(cPent)][d(β3hA)][NMeA]I[Sar][Sar][NMeF][dNMeA][hPhe(3-Cl-4-CF3)]P)) | IC50 | nM | 170 |
| C=C(C)C[C@@H]1NC(=O)[C@H](Cc2cccc(I)c2)NC(=O)CN(C)C(=O)[C@H](Cc2ccc(Cl)cc2)N(C)C(=O)[C@@H]2CCN2C(=O)[C@H](C)N(C)C(=O)[C@H]([C@@H](C)CC)NC(=O)[C@H](CC(C)C)N(C)C(=O)C[C@@H](C(=O)N2CCCCC2)N(C)C(=O)[C@H](CC(C)C)NC(=O)C(C)(C)N(C)C1=O [Compound 1429] ([NMeL]I[NMeA][Aze][NMePhe(4-Cl)][Sar][Phe(3-I)][Leu(4,5-dehydro)][NMeAib]L[NMeD]-Piperidide; lactam N-11) | IC50 | nM | 44 |

====

Quick reference for pIC50 among some molecules
target.desc: Kras and SOS1 (biotin-tagged human Kras loaded with GDP, His-tagged human SOS1) (Homo sapiens, UniProt P01116, G12D)
Construct: made in house; host or cells: E. coli (stated for Kras only)
assay.overview: Protein-protein interaction inhibition between Kras and SOS1 (KrasGl2D-SOS PPI) using AlphaScreen
Format: binding
stated.conditions: AlphaScreen; biotin-tagged human Kras loaded with GDP, His-tagged human SOS1; read-out: KRAS G12D-SOS PPI IC50
pIC50: −log10 of the molar value. Starred links: 1 amine or outer side, 2 acyl side, 3 side chain; linkers in the order of their positions; H or OH if unused. Positions of bridges follow the written chain, without caps; N, C: chain ends. Non-standard residues stand in square brackets, D forms with d. Residues, ends and D or L forms follow the SMILES beside them. *: point of attachment. hPhe(3-Cl-4-CF3) = N[C@@H](CCc1ccc(C(F)(F)F)c(Cl)c1)C(=O)O; hPhe(4-CF3) = N[C@@H](CCc1ccc(C(F)(F)F)cc1)C(=O)O; NMePhe(4-Cl) = CN[C@@H](Cc1ccc(Cl)cc1)C(=O)O; NMePhe(3-Me) = CN[C@@H](Cc1cccc(C)c1)C(=O)O; NMePhe(4-Me) = CN[C@@H](Cc1ccc(C)cc1)C(=O)O; NMedβ3hAla = C[C@H](CC(=O)[*:2])N(C)[*:1]; Phe(3-I) = N[C@@H](Cc1cccc(I)c1)C(=O)O; NMeCha = CN[C@@H](CC1CCCCC1)C(=O)O; NMeChg = CN[C@H](C(=O)O)C1CCCCC1; NMeF = CN[C@@H](Cc1ccccc1)C(=O)O; NMeI = CC[C@H](C)[C@H](NC)C(=O)O; hPhe = N[C@@H](CCc1ccccc1)C(=O)O; NMeD = CN[C@@H](CC(=O)O)C(=O)O; NMeL = CN[C@@H](CC(C)C)C(=O)O; NMeS = CN[C@@H](CO)C(=O)O; NMeA = CN[C@@H](C)C(=O)O; NMeAib = CNC(C)(C)C(=O)O; Piperidide = C1CCN(*)CC1; Pyrrolidide = C1CCN(*)C1; Ac5c = NC1(C(=O)O)CCCC1; Aze = O=C(O)[C@@H]1CCN1; X47 = Fc1cncc(C*)c1; Sar = CNCC(=O)O
measured.parameter: pIC50

| molecule | measured.parameter | observed.result |
| --- | --- | --- |
| CC[C@H](C)[C@@H]1NC(=O)[C@H](CC(C)C)N(C)C(=O)C[C@@H](C(=O)N2CCCCC2)N(C)C(=O)[C@H](CC(C)C)NC(=O)C(C)(C)N(C)C(=O)[C@H](CCc2ccccc2)NC(=O)[C@H](Cc2cccc(I)c2)NC(=O)CN(C)C(=O)[C@H](Cc2ccc(C)cc2)N(C)C(=O)[C@@H]2CCN2C(=O)[C@H](C)N(C)C1=O [Compound 617] ([NMeL]I[NMeA][Aze][NMePhe(4-Me)][Sar][Phe(3-I)][hPhe][NMeAib]L[NMeD]-Piperidide; lactam N-11) | pIC50 | 6.96 |
| CC[C@H](C)[C@@H]1NC(=O)[C@H](CC(C)C)N(C)C(=O)C[C@@H](C)N(C)C(=O)[C@H](CC(C)C)NC(=O)C(C)(C)N(C)C(=O)[C@H](CC(C)C)NC(=O)[C@H](CCc2ccc(C(F)(F)F)c(Cl)c2)NC(=O)CN(C)C(=O)[C@H](CC2CCCCC2)N(C)C(=O)[C@@H]2CCN2C(=O)CN(C)C1=O [Compound 57] (cyclo([Aze][NMeCha][Sar][hPhe(3-Cl-4-CF3)]L[NMeAib]L[NMedβ3hAla][NMeL]I[Sar])) | pIC50 | 7.80 |
| CC[C@H](C)[C@@H]1NC(=O)[C@H](C)N(C)C(=O)C[C@@H](C(=O)N2CCCC2)NC(=O)[C@H](CC(C)C)N(C)C(=O)[C@H](Cc2ccccc2)N(C)C(=O)[C@H](COCc2cncc(F)c2)NC(=O)[C@H](CCc2ccc(C(F)(F)F)cc2)NC(=O)CN(C)C(=O)[C@H](Cc2ccc(Cl)cc2)N(C)C(=O)CN(C)C(=O)CN(C)C1=O [Compound 513] ([NMeA]I[Sar][Sar][NMePhe(4-Cl)][Sar][hPhe(4-CF3)]S(X47)[NMeF][NMeL]D-Pyrrolidide; lactam N-11) | pIC50 | 7.34 |
| CC[C@H](C)[C@@H]1NC(=O)[C@H](COC)N(C)C(=O)C[C@@H](C(=O)N2CCCCC2)N(C)C(=O)[C@H](C2CCCCC2)N(C)C(=O)C2(CCCC2)NC(=O)[C@@H]2CCCN2C(=O)[C@H](CCc2ccc(C(F)(F)F)c(Cl)c2)NC(=O)CN(C)C(=O)[C@H](CC2CCCCC2)N(C)C(=O)CN(C)C(=O)CN(C)C1=O [Compound 1037] ([NMeS](Me)I[Sar][Sar][NMeCha][Sar][hPhe(3-Cl-4-CF3)]P[Ac5c][NMeChg][NMeD]-Piperidide; lactam N-11) | pIC50 | 9.18 |
| CC[C@H](C)[C@@H]1NC(=O)[C@H](CC(C)C)N(C)C(=O)C[C@@H](C(=O)N(C)C)N(C)C(=O)[C@H]([C@@H](C)CC)N(C)C(=O)C2(CCCC2)NC(=O)[C@H](Cc2cccc(C)c2)N(C)C(=O)[C@H](CCc2ccc(C(F)(F)F)c(Cl)c2)NC(=O)CN(C)C(=O)[C@H](Cc2ccc(C)cc2)N(C)C(=O)[C@@H]2CCN2C(=O)[C@H](C)N(C)C1=O [Compound 912] ([NMeL]I[NMeA][Aze][NMePhe(4-Me)][Sar][hPhe(3-Cl-4-CF3)][NMePhe(3-Me)][Ac5c][NMeI][NMeD]-NMe2; lactam N-11) | pIC50 | 7.92 |
